# tgt: BCL6 (Homo sapiens, UniProt P41182)
# Construct: endogenous in cells; host or cells: T47D breast cancer epithelial cells
# method: Immunofluorescence protocol for high content imaging of BCL6 (degradation) in T47D cells, 3 days compound treatment
# Assay type: cell-based
# conditions: T47D cells, 3 days compound treatment, read-out: Mean Dmax (%)** category
Provide the reported Dmax of each item.

Give its Dmax value. Item: CNC(=O)COc1cc2cc(Nc3nc(N4CCC(CN5CC6(CCN(c7ccc8c(c7)CN(C7CCC(=O)NC7=O)C8=O)C6)CC5=O)CC4)ncc3Cl)ccc2n(C(C)C)c1=O (stereo not shown) < 50%

Subsequent entry: CNC(=O)COc1cc2cc(Nc3nc(N4CCC(CN5CCC6(CN(c7cccc8c7CN(C7CCC(=O)NC7=O)C8=O)C6)C(F)(F)C5)CC4)ncc3Cl)ccc2n(C(C)C)c1=O (stereo not shown) 50 to 70%

Request: CNC(=O)COc1cc2cc(Nc3nc(N4CCN(CC5(F)CCN(c6ccc7c(c6)CN(C6CCC(=O)NC6=O)C7=O)CC5)CC4)ncc3Cl)ccc2n(C(C)C)c1=O (stereo not shown) 50 to 70%

Moving on to the next molecule: CNC(=O)COc1cc2cc(Nc3nc(N4CCC5(CC4)CC(CN4CCN(c6cccc7c6CN(C6CCC(=O)NC6=O)C7=O)CC4)C5)ncc3Cl)ccc2n(C(C)C)c1=O (stereo not shown) ≥ 70%

For CNC(=O)COc1cc2cc(Nc3nc(N4CCC(O[C@H]5C[C@H](N6CCC(c7ccc8c(c7)C(=O)N(C7CCC(=O)NC7=O)C8=O)C(F)(F)C6)C5)CC4)ncc3Cl)ccc2n(C(C)C)c1=O (stereo partly shown) then? ≥ 70%

Here is the next molecule: CNC(=O)COc1cc2cc(Nc3nc(N4CCC(OC5CCC(N6CCC(c7ccc8c(c7)C(=O)N(C7CCC(=O)NC7=O)C8=O)CC6)C5)CC4)ncc3Cl)ccc2n(C(C)C)c1=O (stereo not shown) 50 to 70%

Again, but for CNC(=O)COc1cc2cc(Nc3nc(N4CCN(CC5(F)CCN(c6cccc7c6CN(C6CCC(=O)NC6=O)C7=O)CC5)CC4)ncc3Cl)ccc2n(C(C)C)c1=O (stereo not shown) 50 to 70%

Would you mind doing CNC(=O)COc1cc2cc(Nc3nc(N4CCC(CN5CCC6(CC5)CN(c5ccc7c(c5F)CN(C5CCC(=O)NC5=O)C7=O)C6)CC4)ncc3Cl)ccc2n(C(C)C)c1=O (stereo not shown) as well? 50 to 70%

Thanks! And CNC(=O)COc1cc2cc(Nc3nc(N4CCC(CN5CC6(CCN(c7ccc8c(c7)C(=O)N(C7CCC(=O)NC7=O)C8=O)CC6(F)F)C5)CC4)ncc3Cl)ccc2n(C(C)C)c1=O (stereo not shown) ? 50 to 70%

Could you do the same for CNC(=O)COc1cc2cc(Nc3nc(N4CCC(CN5CCC6(CC5)CC5(CN(c7ccc8c(c7)CN(C7CCC(=O)NC7=O)C8=O)C5)C6)CC4)ncc3Cl)ccc2n(C(C)C)c1=O (stereo not shown) , please? 50 to 70%
